The reported measurements were obtained from patent US20160257732A1.

Molecular target: HA of ca A/swine/Missouri/06 (H2N3) (influenza A virus)
Test: cell-based or functional assay
Experimental readout: Neutralization IC50, H2-MO06 (µg/mL)

- Binder: "Antibody 10 (antibody, V domains shown) VH: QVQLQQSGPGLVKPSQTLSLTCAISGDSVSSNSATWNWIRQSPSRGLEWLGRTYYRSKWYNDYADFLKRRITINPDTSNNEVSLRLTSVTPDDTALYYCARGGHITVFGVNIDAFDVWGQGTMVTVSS VL: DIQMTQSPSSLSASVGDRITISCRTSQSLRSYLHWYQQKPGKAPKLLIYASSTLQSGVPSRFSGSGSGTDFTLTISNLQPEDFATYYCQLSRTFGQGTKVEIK"
  Experimental readout: "Neutralization IC50, H2-MO06"
  Experimental result: 1.04
- Binder: "Antibody 6 (antibody, V domains shown) VH: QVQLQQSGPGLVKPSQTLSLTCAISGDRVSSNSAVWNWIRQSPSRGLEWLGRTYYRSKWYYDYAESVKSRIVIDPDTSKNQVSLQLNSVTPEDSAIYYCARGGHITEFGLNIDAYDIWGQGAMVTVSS VL: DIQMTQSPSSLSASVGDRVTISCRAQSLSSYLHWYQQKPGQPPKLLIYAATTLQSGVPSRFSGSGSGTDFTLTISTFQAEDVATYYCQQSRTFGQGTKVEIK"
  Experimental readout: "Neutralization IC50, H2-MO06"
  Experimental result: 2.9
- Binder: "Antibody 3 (antibody, V domains shown) VH: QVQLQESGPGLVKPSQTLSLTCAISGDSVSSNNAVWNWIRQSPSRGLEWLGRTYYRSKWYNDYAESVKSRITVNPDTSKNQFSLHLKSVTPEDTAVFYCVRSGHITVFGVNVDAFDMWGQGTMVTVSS VL: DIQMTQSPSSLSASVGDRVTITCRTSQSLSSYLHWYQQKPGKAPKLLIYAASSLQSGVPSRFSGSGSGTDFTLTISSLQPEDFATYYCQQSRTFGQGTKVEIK"
  Experimental readout: "Neutralization IC50, H2-MO06"
  Experimental result: 2.27
